Test: Clearance in Sprague-Dawley rat at 1 mg/kg, iv and 3 mg/kg, po measured up to 7 hrs by HPLC-MS/MS analysis
Format: ADME, organism-based
Conditions: in vivo
observation.type: clearance (mL/min/kg)
API: value field is a number in mL/min/kg; no unit string.

CN(c1nnc(-c2ccc(-c3cnn(C)c3)cc2O)s1)C1CC(C)(C)NC(C)(C)C1 : 71

The measured clearance associated with `COc1cc(-n2cccn2)ccc1-c1nnc(N(C)C2CC(C)(C)NC(C)(C)C2)s1` reads 72

// `CN(c1nnc(-c2ccc(-c3ccn(C)c(=O)c3)cc2O)s1)C1CC(C)(C)NC(C)(C)C1` : clearance value = 163
